- systemUnderTest: Carnitine O-palmitoyltransferase 1, muscle isoform (Homo sapiens)
- Sequence (Q92523 whole entry, canonical isoform): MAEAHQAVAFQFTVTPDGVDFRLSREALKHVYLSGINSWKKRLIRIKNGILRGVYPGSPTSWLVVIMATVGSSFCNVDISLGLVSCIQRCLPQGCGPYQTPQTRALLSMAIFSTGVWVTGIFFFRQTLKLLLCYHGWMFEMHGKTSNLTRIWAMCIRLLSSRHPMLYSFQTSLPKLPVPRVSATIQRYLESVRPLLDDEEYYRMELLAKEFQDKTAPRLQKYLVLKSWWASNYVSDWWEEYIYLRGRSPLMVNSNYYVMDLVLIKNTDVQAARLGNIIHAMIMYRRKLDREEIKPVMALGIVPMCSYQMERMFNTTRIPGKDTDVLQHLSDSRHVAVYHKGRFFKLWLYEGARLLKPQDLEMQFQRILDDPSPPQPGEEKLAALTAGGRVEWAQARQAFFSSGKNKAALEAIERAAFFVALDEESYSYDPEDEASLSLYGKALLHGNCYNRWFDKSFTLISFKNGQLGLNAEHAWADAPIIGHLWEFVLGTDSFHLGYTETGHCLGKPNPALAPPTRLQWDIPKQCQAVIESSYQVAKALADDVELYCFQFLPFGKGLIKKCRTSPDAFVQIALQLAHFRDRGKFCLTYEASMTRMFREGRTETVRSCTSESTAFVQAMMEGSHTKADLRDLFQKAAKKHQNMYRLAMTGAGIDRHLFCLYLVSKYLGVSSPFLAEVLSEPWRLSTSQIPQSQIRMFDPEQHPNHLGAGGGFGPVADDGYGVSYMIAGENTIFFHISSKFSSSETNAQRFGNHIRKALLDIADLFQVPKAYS
- protocolText: SUPPLEMENTARY: Inhibition of Carnitine palmitoyltransferase 1, muscle isoform
parameterMeasured: IC50 (µM)
Report the value in µM with no unit label.

Please review the following examples before continuing.
[in] Which IC50 is reported with Carnitine O-palmitoyltransferase 1, muscle isoform (Homo sapiens) for this entry: O=C(O)Cc1ccc(NC(=O)c2ccc3ccn(S(=O)(=O)c4cccc(Cl)c4)c3c2)cc1 ?
[out] 1.35

[in] Which IC50 is reported with Carnitine O-palmitoyltransferase 1, muscle isoform (Homo sapiens) for this entry: COc1ccc(Cl)cc1Cc1c[nH]c2ccc(C(=O)Nc3nc(CC(=O)O)cs3)cc12 ?
[out] 1.2

[in] Which IC50 is reported with Carnitine O-palmitoyltransferase 1, muscle isoform (Homo sapiens) for this entry: O=C(COc1ccccc1)NS(=O)(=O)Cc1ccc(-c2nc([C@H]3CCCCN3C(=O)COc3ccccc3)cs2)cc1 ?
[out] 2.29

More entries:
[in] Which IC50 is reported with Carnitine O-palmitoyltransferase 1, muscle isoform (Homo sapiens) for this entry: COc1ccc(Cl)cc1S(=O)(=O)N1CCc2ccc(C(=O)Nc3ccn(CC(=O)O)n3)cc21 ?
[out] 8.1
